Taken from patent US6737383B1.

test system: wild oat; assay: Test B pre/postemergence wild oat; format: in vivo, Avena fatua; conditions: Preemergence, Rate 62 g/ha; scale of 0 to 10 where 0 is no effect and 10 is complete control
property-name: Wild oats plant response rating
Numbers only.

[
  {
    "compound": "CC(C)N(C(=O)n1oc(=O)n(C(C)C=O)c1=O)c1ccccc1 (stereo not drawn) [Compound 693]",
    "Wild oats plant response rating": 0
  },
  {
    "compound": "CC(C)N(C(=O)n1oc(=O)n(CC2CCCCO2)c1=O)c1ccc(F)cc1F (stereo not drawn) [Compound 715]",
    "Wild oats plant response rating": 9
  }
]

Proceeding to the next compound to report its Wild oats plant response rating.
Entry CC(C)n1c(=O)on(C(=O)N(c2ccc(Cl)cc2Cl)C2CCC2)c1=O [Compound 319] ; Wild oats plant response rating = 0
